- MEASURED TARGET: factor VIII target (Homo sapiens)
- Construct: amino acids 1-743 and 1638 through 2332 of human factor VIII; purchased Genetics Institute, Inc. (Cambridge, Mass.)
- Sequence (P00451 20-762): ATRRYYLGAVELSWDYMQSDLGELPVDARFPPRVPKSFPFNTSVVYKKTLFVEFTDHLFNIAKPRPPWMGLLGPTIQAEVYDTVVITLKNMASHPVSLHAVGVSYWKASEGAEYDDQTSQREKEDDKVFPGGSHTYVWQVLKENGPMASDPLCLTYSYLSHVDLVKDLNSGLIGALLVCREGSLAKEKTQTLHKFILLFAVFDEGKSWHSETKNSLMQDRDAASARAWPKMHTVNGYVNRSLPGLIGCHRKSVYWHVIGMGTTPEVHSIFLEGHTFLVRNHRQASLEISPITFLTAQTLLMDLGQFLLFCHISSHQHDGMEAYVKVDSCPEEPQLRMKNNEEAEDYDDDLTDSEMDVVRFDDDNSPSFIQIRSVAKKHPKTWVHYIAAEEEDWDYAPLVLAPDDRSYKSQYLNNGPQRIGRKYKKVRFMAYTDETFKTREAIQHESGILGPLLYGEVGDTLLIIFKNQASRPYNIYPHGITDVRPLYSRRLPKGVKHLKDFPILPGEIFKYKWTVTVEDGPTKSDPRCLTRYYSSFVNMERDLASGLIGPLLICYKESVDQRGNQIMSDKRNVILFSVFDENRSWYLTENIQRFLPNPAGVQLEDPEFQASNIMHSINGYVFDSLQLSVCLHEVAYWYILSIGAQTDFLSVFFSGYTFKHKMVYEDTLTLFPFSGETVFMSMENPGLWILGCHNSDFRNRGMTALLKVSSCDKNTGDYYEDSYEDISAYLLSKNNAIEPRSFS
- Sequence (P00451 1657-2351): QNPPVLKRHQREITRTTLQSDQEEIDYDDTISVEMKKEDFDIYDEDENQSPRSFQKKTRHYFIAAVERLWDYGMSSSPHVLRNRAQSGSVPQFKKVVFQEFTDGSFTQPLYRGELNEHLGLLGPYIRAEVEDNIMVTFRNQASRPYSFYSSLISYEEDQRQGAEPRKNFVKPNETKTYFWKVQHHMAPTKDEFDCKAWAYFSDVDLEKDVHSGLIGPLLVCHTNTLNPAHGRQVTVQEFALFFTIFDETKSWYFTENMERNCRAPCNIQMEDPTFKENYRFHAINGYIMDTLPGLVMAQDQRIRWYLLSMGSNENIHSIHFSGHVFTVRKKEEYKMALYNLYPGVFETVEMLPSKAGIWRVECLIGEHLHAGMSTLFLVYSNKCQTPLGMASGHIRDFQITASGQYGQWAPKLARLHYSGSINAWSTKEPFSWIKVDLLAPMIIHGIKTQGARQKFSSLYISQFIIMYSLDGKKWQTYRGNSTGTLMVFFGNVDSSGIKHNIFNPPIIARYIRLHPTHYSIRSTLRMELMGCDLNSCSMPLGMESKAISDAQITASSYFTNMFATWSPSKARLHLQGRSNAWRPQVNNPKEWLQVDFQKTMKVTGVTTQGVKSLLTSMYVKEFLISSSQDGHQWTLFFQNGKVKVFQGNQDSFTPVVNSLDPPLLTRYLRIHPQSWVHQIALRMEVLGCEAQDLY
- PROTOCOL SUMMARY: Phage ELISA of high scoring isolates from rounds 2 and 3, with versus without target
- Type: binding
- RUN CONDITIONS: phage isolates from rounds 2 and 3
- Method: During analysis of the specific polypeptides of the invention, three libraries were isolated and screened. […] These libraries were designated TN7/1, TN8/6 anf TN9/1. In addition, important consensus sequences were determined. Three rounds of screenings were carried out for each library. […] Bound phage were detected with HRP conjugated anti-M13 polyclonal antibody (Pharmacia). […] The color is quantitated by absorbance at OD630. […]
No end group written: not given here.
Below is a list of entries, each paired with its recorded R, ratio of the ELISA score with target present to the ELISA score without target value.
Could you respond with only the numeric value?

Completed entries (count: 3):
FCWVFQFRHCH (Selected Phage Display Sequence)    8
HPCGSWLRPCLH (cysteine pairing not given here) [TN8 isolate 10]    16
HLCFAWFRPCDA (cysteine pairing not given here) [TN8 isolate 12]    8

Measured R, ratio of the ELISA score with target present to the ELISA score without target, HPCGSWLHPCAA (cysteine pairing not given here) [TN8 isolate 04] : 6

Measured R, ratio of the ELISA score with target present to the ELISA score without target, HPCGSWFRPCFH (cysteine pairing not given here) [TN8 isolate 02] : 16
